- Experiment Description: Caco-2 assay
- Assay type: in vitro ADME
- Setup Conditions: human; Caco-2 efflux ratio PappBA/PappAB; 10 μM test compound, pH 7.4; read-out: Caco ER
Assay Metric: efflux ratio at 90 min, 10 μM

A: C[C@H](Oc1cc(Nc2ncccn2)nc(-c2noc3c2CCC[C@@]32CCCc3sc(N)c(C#N)c32)n1)[C@@H]1CCCN1C
B: COc1c(OCC2(N(C)C)COC2)nc(-c2noc3c2CCC[C@@]32CCCc3sc(N)c(C#N)c32)nc1O[C@@H](C)[C@@H]1CCCN1C
C: C[C@H](Oc1cc(Oc2nccs2)nc(-c2noc3c2CCC[C@@]32CCCc3sc(N)c(C#N)c32)n1)[C@@H]1CCCN1C
D: C[C@H](Oc1cc(Oc2cncnc2)nc(-c2noc3c2CCC[C@@]32CCCc3sc(N)c(C#N)c32)n1)[C@@H]1CCCN1C
Please put the entries in order of rising efflux ratio at 90 min, 10 μM. Present the labels in the sequence the task asks for.
C, D, A, B
(C: 0.5, D: 1.5, A: 5, B: 13.6)

---

# solubility at 24 h listing for each entry below
- Experiment Description: Solubility measurement (DMSO solution precipitation method)
- Type: physicochemical
- Setup Conditions: aqueous buffer, kinetic from dmso stock; McIlvaine buffer pH 4.5, 24 h; read-out: Solubility [μg/ml] pH 4.5

Would you please look over these solved cases?
molecule="C[C@H](Oc1cc(Oc2nccs2)nc(-c2onc3c2CCC[C@@]32CCCc3sc(N)c(C#N)c32)n1)[C@@H]1CCCN1C [Example I-1]" assay_metric="solubility at 24 h" recorded_value="95 µg/mL"
molecule="C[C@H](Oc1cc(Nc2ncco2)nc(-c2noc3c2CCC[C@@]32CCCc3sc(N)c(C#N)c32)n1)[C@@H]1CCCN1C [II-13]" assay_metric="solubility at 24 h" recorded_value="> 157 µg/mL"
molecule="C[C@H](Oc1cc(Oc2cncnc2)nc(-c2noc3c2CCC[C@@]32CCCc3sc(N)c(C#N)c32)n1)[C@@H]1CCCN1C [II-1]" assay_metric="solubility at 24 h" recorded_value="> 137 µg/mL"
molecule="C[C@H](Oc1cc(N[C@H]2CCOC2)nc(-c2onc3c2CCC[C@@]32CCCc3sc(N)c(C#N)c32)n1)[C@@H]1CCCN1C [Example I-4]" assay_metric="solubility at 24 h" recorded_value="> 135 µg/mL"
molecule="C[C@H](Oc1cc(O[C@@H]2CNC2(C)C)nc(-c2noc3c2CCC[C@@]32CCCc3sc(N)c(C#N)c32)n1)[C@@H]1C[C@@H](F)CN1C [II-31]" assay_metric="solubility at 24 h" recorded_value="> 157 µg/mL"
molecule="COCCOc1cc(O[C@@H](C)[C@@H]2CCCN2C)nc(-c2noc3c2CCC[C@@]32CCCc3sc(N)c(C#N)c32)n1 [II-5]" assay_metric="solubility at 24 h" recorded_value="> 140 µg/mL"
molecule="C[C@H](Oc1cc(OCC2(N(C)C)COC2)nc(-c2noc3c2CCC[C@@]32CCCc3sc(N)c(C#N)c32)n1)[C@@H]1CCCN1C [II-22]" assay_metric="solubility at 24 h" recorded_value="> 168 µg/mL"
molecule="C[C@H](Oc1cc(Nc2ccccn2)nc(-c2noc3c2CCC[C@@]32CCCc3sc(N)c(C#N)c32)n1)[C@@H]1CCCN1C [II-16]" assay_metric="solubility at 24 h" recorded_value="41 µg/mL"

Please report the measured solubility at 24 h for C[C@H](Oc1cc(O[C@H]2CNC(C)(C)C2)nc(-c2noc3c2CCC[C@@]32CCCc3sc(N)c(C#N)c32)n1)[C@@H]1CCCN1C (single isomer, unassigned) [II-8]
> 145 µg/mL

Please report the measured solubility at 24 h for C[C@H](Oc1cc(Oc2cncnc2)nc(-c2onc3c2CCC[C@@]32CCCc3sc(N)c(C#N)c32)n1)[C@@H]1CCCN1C [Example I-3]
> 128 µg/mL

Please report the measured solubility at 24 h for C[C@H](Oc1cc(N(C)C)nc(-c2noc3c2CCC[C@@]32CCCc3sc(N)c(C#N)c32)n1)[C@@H]1CCCN1C [II-10]
> 107 µg/mL

These measurements were taken from patent US20250129095A1.
